Reference source: paper PMC7996396

target: TBP6.9(F34M/F37M/F77M) 7Se-Met (Homo sapiens (lab-evolved)) (UniProt P09012); assay: ITC; conditions: ITC: 50 mM Na-HEPES pH 7.5, 50 mM NaCl, 50 mM KCl, 2 mM MgCl2, 5 mM beta-mercaptoethanol, 20 C; protein in syringe, RNA in cell
Sequence (P09012 whole entry, stated change not applied): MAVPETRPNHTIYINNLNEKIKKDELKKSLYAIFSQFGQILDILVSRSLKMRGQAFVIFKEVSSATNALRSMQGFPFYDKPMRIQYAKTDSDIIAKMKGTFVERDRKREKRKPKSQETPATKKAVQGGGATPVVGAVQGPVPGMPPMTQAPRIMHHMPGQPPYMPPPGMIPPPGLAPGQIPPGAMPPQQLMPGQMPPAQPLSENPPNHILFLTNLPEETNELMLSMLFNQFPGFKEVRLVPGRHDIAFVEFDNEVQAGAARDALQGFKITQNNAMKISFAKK
Known Kd of a selection of sequences
Expressed in nM, but write only the number.

ENTRY_SEQUENCE | Kd / nM
GCAGAUCUGAGCCCGAAAGGAGCUCUCUGC [GNRA-TAR 30-mer] | 69.8

Turning now to a further record.
Find the recorded Kd belonging to GGAGAUCUGAGCCUGGGAGCUCUCUCC [HIV-1 TAR 27-mer] and report it. 13.5
